# measured_on: T1, cynomolgus monkey 5T4 antigen (cynomolgus monkey, UniProt Q4R8Y9 35-420)
# T1 construct: whole, on cells; also called cyno 5T4
# T1 sequence (looked up): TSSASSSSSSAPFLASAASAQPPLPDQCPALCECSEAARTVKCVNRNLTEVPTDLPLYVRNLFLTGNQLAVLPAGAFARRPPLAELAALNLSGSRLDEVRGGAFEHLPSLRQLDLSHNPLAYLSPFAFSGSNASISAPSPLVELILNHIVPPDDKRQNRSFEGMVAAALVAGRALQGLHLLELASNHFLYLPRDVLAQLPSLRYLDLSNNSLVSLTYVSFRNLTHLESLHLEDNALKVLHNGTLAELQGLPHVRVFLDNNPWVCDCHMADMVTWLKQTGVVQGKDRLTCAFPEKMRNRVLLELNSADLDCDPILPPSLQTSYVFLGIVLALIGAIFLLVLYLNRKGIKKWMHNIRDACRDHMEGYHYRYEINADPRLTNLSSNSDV
# assay_notes: flow cytometry, CHOZN cells expressing cyno 5T4

binder | result_unit | EC50
humanized anti-5T4 antibody 833c with HC-41C mutation (antibody, human IgG1, kappa, V domains shown) VH: EVQLEESGGGLVKPGGSLRLSCAASGIDLSHYVVGWVRQACGKGLEWVSIIYGSGRTYYANWAKGRFTISRDNSKNTLYLQMNSLRAEDTAVYYCARDASVSVYYWGYFDLWGRGTLVTVSS VL: DIQMTQSPSTLSASVGDRVTITCQASQSIGSELAWYQQKPGKAPKLLIYRASTLESGVPSRFSGSGSGTEFTLTISSLQPDDFATYYCQQGYTYSEIDNAFGQGTKVEIKR | µg/mL | 0.17
humanized anti-5T4 antibody 789d with HC-41C mutation (antibody, V domains shown) VH: QSVEESGGGLVQPGGSLRLSCAASGFSLSSYWMSWVRQACGKGLEWIGIIAGRGSTYYASWAKGRFTISRDNSKNTLYLQMNSLRAEDTAVYYCARVSSIYYTFNLWGQGTLVTVSS VL: AQVLTQSPSSLSASVGDRVTITCQSSQSVYSNNELSWYQQKPGKAPKLLIYYASTLASGVPSRFSGSGSGTDFTLTISSLQPEDFATYYCQGSYYSGSGWYYAFGGGTKVEIKR | µg/mL | 0.15
humanized anti-5T4 antibody 833b with HC-41C mutation (antibody, human IgG1, kappa, V domains shown) VH: EVQLVESGGGLVQPGGSLRLSCAASGIDLSHYVVGWVRQACGKGLEWVSIIYGSGRTYYANWAKGRFTISRDNSKNTLFLRMNSLRVEDTAVYFCARDASVSVYYWGYFDLWGQGTLVTVSS VL: AYDMTQSPSSVSASVGDRVTITCQASQSIGSELAWYQQKPGKAPKLLIYRASTLESGVPSRFSGSGSGTDFTLTISSLQPEDFATYYCQQGYTYSEIDNAFGGGTKVEIKR | µg/mL | 0.18
humanized anti-5T4 antibody 789b with HC-41C mutation (antibody, V domains shown) VH: EVQLLESGGSLVLPGGSLRLSCAASGFSLSSYWMSWVRQACGKGLEWVSIIAGRGSTYYASWAKGRFTISRDNSKNTLYMQMNSLRAEDTALYFCARVSSIYYTFNLWGQGTLVTVSS VL: EIVLTQSPSSLSASVGDRVTITCQSSQSVYSNNELSWYQQKPGKAPKLLIYYASTLASGVPSRFSGSGSGTDFTLTISSLQPEDFATYYCQGSYYSGSGWYYAFGQGTKLEIKR | µg/mL | 0.24
humanized anti-5T4 antibody 825a with HC-41C mutation (antibody, human IgG1, kappa, V domains shown) VH: EVQLVESGGDLAQPGGSLRLSCAVSGIDLSSYGMGWVRQACGKGLEWVSIISRNSVTYYATWAKGRFTISRDNSKNTVYLQMTSLRAEDTALYFCARRATYSGALGYFDIWGQGTLVTVSS VL: EIVMTQSPSSLSASVGDRVTITCQASENIYSTLAWYQQKPGKAPKLLIYDAFDLASGVPSRFSGSGSGTDYTLTISSLQPEDFATYYCQQGYSGTNVDNAFGQGTKLEIKR | µg/mL | 0.53

Reference source: patent US20210317231A1
